Target: 5-HT1A serotonin receptor subtype (Rattus norvegicus, UniProt P19327)
Construct: from tissue
Sequence (P19327 whole entry): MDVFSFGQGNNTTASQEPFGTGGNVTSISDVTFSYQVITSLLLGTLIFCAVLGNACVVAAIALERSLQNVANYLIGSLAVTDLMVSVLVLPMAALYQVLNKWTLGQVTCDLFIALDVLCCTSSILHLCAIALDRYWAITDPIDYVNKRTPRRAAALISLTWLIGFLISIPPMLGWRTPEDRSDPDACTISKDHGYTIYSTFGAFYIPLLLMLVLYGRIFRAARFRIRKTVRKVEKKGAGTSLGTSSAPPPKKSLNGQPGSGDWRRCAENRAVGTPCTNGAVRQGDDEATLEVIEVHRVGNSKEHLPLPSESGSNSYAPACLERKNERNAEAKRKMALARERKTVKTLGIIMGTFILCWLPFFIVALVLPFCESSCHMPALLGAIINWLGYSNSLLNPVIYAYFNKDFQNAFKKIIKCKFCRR
Assay: 5-HT1A receptor binding, displacement of 3H-8-OH DPAT (procedure of Hall et al.)
Conditions: 100 nM test compound; 3H-8-OH DPAT; read-out: Affinity for 5-HT1A Receptor Sites, % Inhibition at 100 nM
Would you mind telling me the reported inhibition at 0.1 µM of each entry?
Report the figure along with its unit, number first.

Ask | Reported inhibition at 0.1 µM for COc1ccccc1N1CCN(CCCN2CC3CC4CC(C3)CC2C4)CC1 [Example 4, Hydrate] : what is it?
Reply | 72%

Ask | Requested read-out: inhibition at 0.1 µM. Entry: `O=C(CCN1CCN(c2ncccn2)CC1)N1CC2CC3CC(C2)CC1C3`
Reply | 46%

Ask | Could you share which inhibition at 0.1 µM value was measured for Clc1cccc(N2CCN(CCCN3CC4CC5CC(C4)CC3C5)CC2)c1 [Example 2, Hydrate] ?
Reply | 47%

Ask | # lookup: inhibition at 0.1 µM of `O=C(CCN1CCN(c2cccc(Cl)c2)CC1)N1CC2CC3CC(C2)CC1C3`
Reply | 78%
